Data provenance: ChEMBL document CHEMBL1157840

- PROTOCOL: Cytotoxicity against african pig LLC-PK11 up to 25 ug/ml after 48 hrs by neutral red assay
- Parameters: species or system Sus scrofa
MEASUREMENT_TYPE: Activity

Consider the worked cases shown below.
O=C(N/N=C/c1ccc2c(c1)OCO2)c1cn2c(n1)CCCC2 = Non-toxic
Cc1ccc(/C=N/NC(=O)c2cn3c(n2)CCCC3)cc1 = Non-toxic
COC1=CC(=O)C[C@@H](C)[C@]12Oc1c(Cl)c(OC)cc(OC)c1C2=O [GRISEOFULVIN] = Non-toxic
Clc1ccccc1C(c1ccccc1)(c1ccccc1)n1ccnc1 [CLOTRIMAZOLE] = Non-toxic

Return value of Activity for input O=C(N/N=C/c1ccc(Cl)cc1)c1cn2c(n1)CCCC2 , no commentary.
Non-toxic

Return value of Activity for input CC(C)c1ccc(/C=N/NC(=O)c2cn3c(n2)CCCC3)cc1 , no commentary.
Non-toxic

Return value of Activity for input CC(=O)N1CCN(c2ccc(OCC3COC(Cn4ccnc4)(c4ccc(Cl)cc4Cl)O3)cc2)CC1 (stereo unspecified) [KETOCONAZOLE] , no commentary.
Non-toxic

Return value of Activity for input N#Cc1ccc(/C=N/NC(=O)c2cn3c(n2)CCCC3)cc1 , no commentary.
Non-toxic

Return value of Activity for input CN(C)c1ccc(/C=N/NC(=O)c2cn3c(n2)CCCC3)cc1 , no commentary.
Non-toxic

Return value of Activity for input O=C(N/N=C/c1ccc([N+](=O)[O-])cc1)c1cn2c(n1)CCCC2 , no commentary.
Non-toxic

Return value of Activity for input O=C(N/N=C/c1ccc(Br)cc1)c1cn2c(n1)CCCC2 , no commentary.
Non-toxic
